# Purity (%) per entry
- ASSAY_EXPLANATION: Long-term/accelerated stability test of crystalline salt forms in sealed aluminum foil bags
- Type: physicochemical
- TEST_CONDITIONS: 25° C./60% RH, 3 months
RECORDED_ENDPOINT: Purity (%)

[[record]]
compound = "CC1COCCN1c1cc(C(C)(C)C#N)c2c(n1)c(-c1cc[nH]n1)nn2C.Cc1ccc(S(=O)(=O)O)cc1 (stereo not shown) [Crystalline form a of p-toluenesulfonate]"
reading = 98.18

[[record]]
compound = "CC1COCCN1c1cc(C(C)(C)C#N)c2c(n1)c(-c1cc[nH]n1)nn2C.CS(=O)(=O)O (stereo not drawn) [Crystalline form α of mesylate]"
reading = 98.62

[[record]]
compound = "CC1COCCN1c1cc(C(C)(C)C#N)c2c(n1)c(-c1cc[nH]n1)nn2C.CC1COCCN1c1cc(C(C)(C)C#N)c2c(n1)c(-c1cc[nH]n1)nn2C.O=C(O)C(=O)O (stereo not shown) [Crystalline form a of oxalate]"
reading = 99.52

[[record]]
compound = "CC1COCCN1c1cc(C(C)(C)C#N)c2c(n1)c(-c1cc[nH]n1)nn2C.O=C(O)C=CC(=O)O (stereo not shown) [Crystalline form I of maleate]"
reading = 98.77


###

- ASSAY_EXPLANATION: Long-term/accelerated stability test of crystalline salt forms in sealed aluminum foil bags
- Type: physicochemical
- TEST_CONDITIONS: 40° C./75% RH, 3 months
- Method: The crystalline form α of mesylate, the crystalline form α of sulfate, the crystalline form I of maleate, the crystalline form a of p-toluenesulfonate and the crystalline form a of oxalate were stored in sealed aluminum foil bags and subjected to stability test under the conditions of −20° C., 4° C., 25° C./60% RH and 40° C./75% RH.
RECORDED_ENDPOINT: Purity (%)

[[record]]
molecule = "CC1COCCN1c1cc(C(C)(C)C#N)c2c(n1)c(-c1cc[nH]n1)nn2C.O=C(O)C=CC(=O)O (stereo not shown) [Crystalline form I of maleate]"
recorded_endpoint = "Purity (%)"
reading = 98.30

[[record]]
molecule = "CC1COCCN1c1cc(C(C)(C)C#N)c2c(n1)c(-c1cc[nH]n1)nn2C.CS(=O)(=O)O (stereo not drawn) [Crystalline form α of mesylate]"
recorded_endpoint = "Purity (%)"
reading = 95.66

[[record]]
molecule = "CC1COCCN1c1cc(C(C)(C)C#N)c2c(n1)c(-c1cc[nH]n1)nn2C.CC1COCCN1c1cc(C(C)(C)C#N)c2c(n1)c(-c1cc[nH]n1)nn2C.O=C(O)C(=O)O (stereo not shown) [Crystalline form a of oxalate]"
recorded_endpoint = "Purity (%)"
reading = 99.40

[[record]]
molecule = "CC1COCCN1c1cc(C(C)(C)C#N)c2c(n1)c(-c1cc[nH]n1)nn2C.Cc1ccc(S(=O)(=O)O)cc1 (stereo not shown) [Crystalline form a of p-toluenesulfonate]"
recorded_endpoint = "Purity (%)"
reading = 95.57


###

# Purity (%) per entry
- ASSAY_EXPLANATION: Long-term/accelerated stability test of crystalline salt forms in sealed aluminum foil bags
- Type: physicochemical
- TEST_CONDITIONS: 4° C., 3 months
RECORDED_ENDPOINT: Purity (%)

[[record]]
molecule = "CC1COCCN1c1cc(C(C)(C)C#N)c2c(n1)c(-c1cc[nH]n1)nn2C.O=C(O)C=CC(=O)O (stereo not shown) [Crystalline form I of maleate]"
recorded_endpoint = "Purity (%)"
scale_unit = "%"
reading = 99.00

[[record]]
molecule = "CC1COCCN1c1cc(C(C)(C)C#N)c2c(n1)c(-c1cc[nH]n1)nn2C.Cc1ccc(S(=O)(=O)O)cc1 (stereo not shown) [Crystalline form a of p-toluenesulfonate]"
recorded_endpoint = "Purity (%)"
scale_unit = "%"
reading = 98.17

[[record]]
molecule = "CC1COCCN1c1cc(C(C)(C)C#N)c2c(n1)c(-c1cc[nH]n1)nn2C.CS(=O)(=O)O (stereo not drawn) [Crystalline form α of mesylate]"
recorded_endpoint = "Purity (%)"
scale_unit = "%"
reading = 98.64

[[record]]
molecule = "CC1COCCN1c1cc(C(C)(C)C#N)c2c(n1)c(-c1cc[nH]n1)nn2C.CC1COCCN1c1cc(C(C)(C)C#N)c2c(n1)c(-c1cc[nH]n1)nn2C.O=C(O)C(=O)O (stereo not shown) [Crystalline form a of oxalate]"
recorded_endpoint = "Purity (%)"
scale_unit = "%"
reading = 99.55

